- Study Target: Glutamate receptor ionotropic, AMPA (Rattus norvegicus, UniProt P19490+P19491+P19492+P19493)
- Protocol: The compound was tested for its affinity for Ionotropic glutamate receptor AMPA in in vitro binding assay on rat cortical membrane preparations using [3H]AMPA as ligand
Our labelling divides records by IC50 into ranges: low (below 200 nM), moderate (200 nM to below 2000 nM), high (2000 nM or more)

1. Cc1ccc2c(c1)-c1nc(O)c3nccn3c1C2 | high
2. O=C(NCCc1ccccc1)Nc1ccc2c(c1)Cc1c-2nc(O)c2nccn12 | low
3. Oc1nc2c(n3ccnc13)Cc1ccc(Cl)cc1-2 | high
4. Oc1nc2c(n3ccnc13)Cc1c(Cl)cccc1-2 | high
5. Oc1nc2c(n3ccnc13)Cc1cc(F)ccc1-2 | moderate
6. COc1ccc2c(c1)Cc1c-2nc(O)c2nccn12 | high
7. Oc1nc2c(n3ccnc13)Cc1ccc(F)cc1-2 | moderate
8. CNC(=O)Nc1ccc2c(c1)C(CC(=O)O)c1c-2nc(O)c2nccn12 (single isomer, unassigned; (+)) | low
9. O=C(Cc1ccccc1)Nc1ccc2c(c1)Cc1c-2nc(O)c2nccn12 | low
10. Oc1nc2c(n3ccnc13)Cc1c(F)cccc1-2 | moderate
11. CCNC(=O)Nc1ccc2c(c1)Cc1c-2nc(O)c2nccn12 | low
12. CNC(=O)Nc1ccc2c(c1)/c(=C/C(=O)O)c1c2nc(O)c2nccn21 | low
13. NC(=O)Nc1ccc2c(c1)Cc1c-2nc(O)c2nccn12 | moderate
14. CNC(=O)Nc1ccc2c(c1)C(CC(=O)O)c1c-2nc(O)c2nccn12 (racemic) | low
15. CNC(=O)Nc1ccc2c(c1)C(CC(=O)O)c1c-2nc(O)c2nccn12 (stereo in doubt; (-)-3) | low
16. O=C(Nc1ccc2c(c1)Cc1c-2nc(O)c2nccn12)c1ccccc1 | moderate
17. O=C(Nc1ccccc1)Nc1ccc2c(c1)Cc1c-2nc(O)c2nccn12 | moderate
18. Cc1ccc2c(c1)Cc1c-2nc(O)c2nccn12 | high
19. CNC(=O)Nc1ccc2c(c1)Cc1c-2nc(O)c2nccn12 | low
20. Nc1ccc2c(c1)Cc1c-2nc(O)c2nccn12 | high
21. Oc1nc2c(n3ccnc13)Cc1cc(-n3ccnc3)ccc1-2 | high
22. Oc1nc2c(n3ccnc13)Cc1cc(Cl)ccc1-2 | high
